Tested on: Pseudomonas aeruginosa
ASSAY: Antibacterial activity against Pseudomonas aeruginosa ATCC 9027 after 24 hrs by broth microdilution technique
Assay type: functional
STUDY_CONDITIONS: ATCC 9027, 24 h
Assign MIC to each entry below.
Please reply with the bare figure in µg/mL and do not write the unit itself.

Item under review: CN(C)[C@@H]1C(O)=C(C(N)=O)C(=O)[C@@]2(O)C(O)=C3C(=O)c4c(O)cccc4[C@@](C)(O)[C@H]3C[C@@H]12 [TETRACYCLINE] . Reported MIC?
16

Param item = `Nn1c(-c2ccc(S(=O)(=O)c3ccccc3)cc2)n[nH]c1=S` ; retrieve measured MIC.
512

// returns reported MIC for input `O=C1CSc2nnc(-c3ccc(S(=O)(=O)c4ccc(Cl)cc4)cc3)n2N1`
128

Name the recorded MIC for `Nn1c(SCC(=O)O)nnc1-c1ccc(S(=O)(=O)c2ccc(Cl)cc2)cc1` .
256

Record request: MIC value, item CCOC(=O)C1Sc2nnc(-c3ccc(S(=O)(=O)c4ccc(Cl)cc4)cc3)n2NC1=O (centres undefined)
128

Can you look up the measured MIC of `O=c1[nH]n2c(-c3ccc(S(=O)(=O)c4ccc(Br)cc4)cc3)nnc2sc1=O` for me?
64

What measured MIC goes with `Nn1c(SCC(=O)Nc2ccccc2)nnc1-c1ccc(S(=O)(=O)c2ccc(Cl)cc2)cc1` ?
32

Any idea what its MIC is? The molecule is `Nn1c(-c2ccc(S(=O)(=O)c3ccc(Cl)cc3)cc2)n[nH]c1=S`
128

I'd like to know its MIC. The molecule in question is `Nn1c(SCC(=O)Nc2ccccc2)nnc1-c1ccc(S(=O)(=O)c2ccc(Br)cc2)cc1`
128
